System: murine SCCVII
Experiment: Clonogenic assay under aerobic and hypoxic conditions, SCCVII
Type: cell-based
Details: SCVIII cells, ratio of C10 under aerobic and hypoxic conditions
Experimental: Evaluation of the Cytotoxicity of Compounds by Clonogenic Assay Under Aerobic and Hypoxic Conditions. Compounds representative of the invention were evaluated under both aerobic and hypoxic conditions in clonogenic assays, using three cell lines: human colon carcinoma HT-29, murine SCCVII, and human lung adenocarcinoma LXFL. Clonogenic survival was determined using aerobic and hypoxic SCCVII cell suspensions. […]
Quantity kind: HCR
One number for each entry.

I have 4 molecules here; please give me HCR for each one.
1. CN(CCNC(=O)c1cccc2cc3ccccc3nc12)CCNc1n[n+]([O-])c2ccccc2[n+]1[O-]
2. Cc1cccc2nc3c(C(=O)NCCCN(C)CCCNc4n[n+]([O-])c5ccccc5[n+]4[O-])cccc3nc12
3. CN(CCNC(=O)c1cccc2ccc(-c3ccncc3)nc12)CCNc1n[n+]([O-])c2ccccc2[n+]1[O-]
4. O=C(NCCCNCCCNc1n[n+]([O-])c2ccccc2[n+]1[O-])c1cccc2cc3ccccc3nc12

Marked response:
1. 400
2. 23.9
3. 65
4. 21.3
